This collection of values is drawn from patent US11357779B2.

assay: Noncompartmental pharmacokinetic parameters (Cmax, Tmax, AUC, Racc) in QD and BID cohorts of Form B; format: in vivo, human; conditions: human, plasma, oral, 150 mg, Compound III; 150 mg BID of Form B; Cohort 7; Day 1; read-out: Tmax (Mean)
experimentalEndpoint: Tmax (h)

[[record]]
smilestext = "O=C1NCC2(CCCCC2)n2c1cc1cnc(Nc3ccc(N4CCNCC4)cn3)nc12"
unitannotation = "h"
numericreadout = 3


----------
assay: Plasma concentration versus time of Compound I and metabolite Compound III in patients dosed QD or BID with Form B of Compound II plus fulvestrant; assay type: in vivo, human; details: human, plasma, oral, 200 mg, 200 mg BID of Form B, Day 1, 0.0 h, Mean; read-out: Compound I Concentration
experimentalEndpoint: concentration at 0 h (ng/mL)

[[record]]
compound = "CC(C)N1CCN(c2ccc(Nc3ncc4cc5n(c4n3)C3(CCCCC3)CNC5=O)nc2)CC1 [Compound I]"
numericreadout = 0


----------
assay: Plasma concentration versus time of Compound I and metabolite Compound III in patients dosed QD or BID with Form B of Compound II plus fulvestrant; assay type: in vivo, human; settings: human, plasma, oral, 200 mg, 200 mg BID of Form B, Day 1, 8.0 h, Mean; read-out: Compound I Concentration
experimentalEndpoint: concentration at 8 h (ng/mL)

[[record]]
molecule = "CC(C)N1CCN(c2ccc(Nc3ncc4cc5n(c4n3)C3(CCCCC3)CNC5=O)nc2)CC1 [Compound I]"
experimentalendpoint = "concentration at 8 h"
unitannotation = "ng/mL"
numericreadout = 8.94


----------
test: Plasma concentration versus time of Compound I and metabolite Compound III in patients dosed QD or BID with Form B of Compound II plus fulvestrant; assay type: in vivo, human; conditions: human, plasma, oral, 100 mg, Cohort 6, 100 mg BID of Form B, Day 29, 4.0 h; read-out: Compound I Concentration, Mean
experimentalEndpoint: concentration at 4 h (ng/mL)

[[record]]
smilestext = "CC(C)N1CCN(c2ccc(Nc3ncc4cc5n(c4n3)C3(CCCCC3)CNC5=O)nc2)CC1"
numericreadout = 10.5


----------
assay: Plasma concentration versus time of Compound I and metabolite Compound III in patients dosed QD or BID with Form B of Compound II plus fulvestrant; type: in vivo, human; details: human, plasma, oral, 150 mg, Cohort 7, 150 mg BID of Form B, Day 29, 4.0 h; read-out: Compound I Concentration, Median
experimentalEndpoint: concentration at 4 h (ng/mL)

[[record]]
smilestext = "CC(C)N1CCN(c2ccc(Nc3ncc4cc5n(c4n3)C3(CCCCC3)CNC5=O)nc2)CC1"
unitannotation = "ng/mL"
numericreadout = 36.9


----------
assay: Plasma concentration versus time of Compound I and metabolite Compound III in patients dosed QD or BID with Form B of Compound II plus fulvestrant; assay type: in vivo, human; conditions: human, plasma, oral, 150 mg, 150 mg BID of Form B, Day 1, 4.0 h, Mean; read-out: Compound I Concentration
experimentalEndpoint: concentration at 4 h (ng/mL)

[[record]]
smilestext = "CC(C)N1CCN(c2ccc(Nc3ncc4cc5n(c4n3)C3(CCCCC3)CNC5=O)nc2)CC1"
experimentalendpoint = "concentration at 4 h"
numericreadout = 20.7


----------
test: Noncompartmental pharmacokinetic parameters (Cmax, Tmax, AUC, Racc) in QD and BID cohorts of Form B; type: in vivo, human; conditions: human, plasma, oral, 650 mg, Compound III; 650 mg QD of Form B; Cohort 5; Day 29; read-out: AUClast (Mean)
experimentalEndpoint: AUC(0-t) (ng·h/mL)

[[record]]
smilestext = "O=C1NCC2(CCCCC2)n2c1cc1cnc(Nc3ccc(N4CCNCC4)cn3)nc12"
experimentalendpoint = "AUC(0-t)"
numericreadout = 125


----------
assay: Noncompartmental pharmacokinetic parameters (Cmax, Tmax, AUC, Racc) in QD and BID cohorts of Form B; format: in vivo, human; details: human, plasma, oral, 400 mg, Cohort 3, 400 mg QD of Form B, Day 1; read-out: AUClast, Mean
experimentalEndpoint: AUC(0-t) (ng·h/mL)

[[record]]
smilestext = "CC(C)N1CCN(c2ccc(Nc3ncc4cc5n(c4n3)C3(CCCCC3)CNC5=O)nc2)CC1"
unitannotation = "ng·h/mL"
numericreadout = 202


----------
assay: Plasma concentration versus time of Compound I and metabolite Compound III in patients dosed QD or BID with Form B of Compound II plus fulvestrant; type: in vivo, human; details: human, plasma, oral, 200 mg, Cohort 8, 200 mg BID of Form B, Day 29, 2.0 h; read-out: Compound I Concentration, Min
experimentalEndpoint: concentration at 2 h (ng/mL)

[[record]]
smilestext = "CC(C)N1CCN(c2ccc(Nc3ncc4cc5n(c4n3)C3(CCCCC3)CNC5=O)nc2)CC1"
experimentalendpoint = "concentration at 2 h"
numericreadout = 5.56


----------
experiment: Plasma concentration versus time of Compound I and metabolite Compound III in patients dosed QD or BID with Form B of Compound II plus fulvestrant; format: in vivo, human; details: human, plasma, oral, 200 mg, 200 mg QD of Form B, Day 29, 12.0 h, Mean; read-out: Compound I Concentration
experimentalEndpoint: concentration at 12 h (ng/mL)

[[record]]
smilestext = "CC(C)N1CCN(c2ccc(Nc3ncc4cc5n(c4n3)C3(CCCCC3)CNC5=O)nc2)CC1"
unitannotation = "ng/mL"
numericreadout = 8.46


----------
assay: Plasma concentration versus time of Compound I and metabolite Compound III in patients dosed QD or BID with Form B of Compound II plus fulvestrant; format: in vivo, human; conditions: human, plasma, oral, 100 mg, Cohort 6, 100 mg BID of Form B, Day 8; read-out: Trough Compound I Concentration, Mean
experimentalEndpoint: concentration at 8 day (ng/mL)

[[record]]
compound = "CC(C)N1CCN(c2ccc(Nc3ncc4cc5n(c4n3)C3(CCCCC3)CNC5=O)nc2)CC1 [Compound I]"
numericreadout = 8.78


----------
assay: Plasma concentration versus time of Compound I and metabolite Compound III in patients dosed QD or BID with Form B of Compound II plus fulvestrant; type: in vivo, human; settings: human, plasma, oral, 150 mg, 150 mg BID of Form B, Day 1, 0.0 h, Mean; read-out: Compound I Concentration
experimentalEndpoint: concentration at 0 h (ng/mL)

[[record]]
compound = "CC(C)N1CCN(c2ccc(Nc3ncc4cc5n(c4n3)C3(CCCCC3)CNC5=O)nc2)CC1 [Compound I]"
experimentalendpoint = "concentration at 0 h"
numericreadout = 0


----------
assay: Plasma concentration versus time of Compound I and metabolite Compound III in patients dosed QD or BID with Form B of Compound II plus fulvestrant; assay type: in vivo, human; settings: human, plasma, oral, 100 mg, 100 mg BID of Form B, Day 1, 3.0 h, Mean; read-out: Compound III Concentration
experimentalEndpoint: concentration at 3 h (ng/mL)

[[record]]
compound = "O=C1NCC2(CCCCC2)n2c1cc1cnc(Nc3ccc(N4CCNCC4)cn3)nc12 [Compound III]"
numericreadout = 1.41


----------
test: Plasma concentration versus time of Compound I and metabolite Compound III in patients dosed QD or BID with Form B of Compound II plus fulvestrant; type: in vivo, human; details: human, plasma, oral, 200 mg, 200 mg QD of Form B, Day 29, 2.0 h, Mean; read-out: Compound I Concentration
experimentalEndpoint: concentration at 2 h

[[record]]
smilestext = "CC(C)N1CCN(c2ccc(Nc3ncc4cc5n(c4n3)C3(CCCCC3)CNC5=O)nc2)CC1"
result = "6.92 ng/mL"


----------
Test: Plasma concentration versus time of Compound I and metabolite Compound III in patients dosed QD or BID with Form B of Compound II plus fulvestrant
Type: in vivo, human
Conditions: human, plasma, oral, 650 mg, 650 mg QD of Form B, Day 1, 12.0 h, Mean; read-out: Compound I Concentration
Text: Patients were enrolled into 1 of 2 parallel, independently operating, dose-escalation dosing cohorts with Form B of Compound II administered continuously either once daily (QD) or twice daily (BID) with food with fixed-dose fulvestrant (intramuscularly every 14 days for the first three injections and then every 28 days). Pre- or perimenopausal patients also received goserelin for the duration of study treatment. […]
experimentalEndpoint: concentration at 12 h

[[record]]
smilestext = "CC(C)N1CCN(c2ccc(Nc3ncc4cc5n(c4n3)C3(CCCCC3)CNC5=O)nc2)CC1"
experimentalendpoint = "concentration at 12 h"
result = "37.4 ng/mL"


----------
experiment: Steady-state AUC0-24,ss, (AUC0-24,ss)/dose, half-life and time to steady state: Compound I versus palbociclib, ribociclib, abemaciclib; assay type: in vivo, human; settings: human, plasma, oral; 500 mg QD of Form B of Compound II, Day 29
experimentalEndpoint: Cmax (ng/mL)

[[record]]
smilestext = "CC(C)N1CCN(c2ccc(Nc3ncc4cc5n(c4n3)C3(CCCCC3)CNC5=O)nc2)CC1"
unitannotation = "ng/mL"
numericreadout = 43.2

